test system: RAW264.7; test: Antiinflammatory activity in mouse RAW264.7 cells assessed as inhibition of LPS-induced NO production treated 2 hrs before LPS challenge measured after 24 hrs; format: functional, cell-based; details: Mus musculus, RAW264.7; read-out: IC50
pIC50: −log10 of the molar value.

| compound | pIC50 |
| --- | --- |
| COc1ccc([C@@H]2c3c(OC)cc(OC)cc3C(C(O)c3ccccc3)[C@H]2c2cc(OC)cc(OC)c2)cc1 (some centres undefined) | < 3.70 |
| COc1ccc([C@@H]2c3c(OC)cc(OC)cc3/C(=C/c3ccc(C)cc3)[C@H]2c2cc(OC)cc(OC)c2)cc1 | < 3.70 |
| COc1ccc([C@@H]2c3c(OC)cc(OC)cc3[C@H]3[C@H](c4ccc(OC)cc4)c4c(OC)cc(OC)cc4[C@@H]23)cc1 | < 3.70 |
| COc1ccc(/C=C2/c3cc(OC)cc(OC)c3[C@@H](c3ccc(OC)cc3)[C@@H]2c2cc(OC)cc(OC)c2)cc1 | 5.20 |
| COc1ccc(/C=C2/c3cc(OC)cc(OC)c3[C@@H](c3ccccc3)[C@@H]2c2cc(OC)cc(OC)c2)cc1 | < 3.70 |
| COc1cc(OC)cc([C@@H]2C(C(O)c3ccccc3)c3cc(OC)cc(OC)c3[C@H]2c2ccccc2)c1 (some centres undefined) | 4.67 |
| COc1ccc([C@@H]2c3c(OC)cc(OC)cc3C(C(O)c3ccc(F)cc3)[C@H]2c2cc(OC)cc(OC)c2)cc1 (some centres undefined) | < 3.70 |
| COc1ccc([C@@H]2c3c(OC)cc(OC)cc3C(SCc3ccc(F)cc3)[C@H]2c2cc(OC)cc(OC)c2)cc1 (some centres undefined) | < 3.70 |
| COc1ccc([C@@H]2c3c(OC)cc(OC)cc3C(C(O)c3ccc(C)cc3)[C@H]2c2cc(OC)cc(OC)c2)cc1 (some centres undefined) | 4.58 |
| O=C1c2cc(O)cc(O)c2[C@@H](c2ccc(O)cc2)[C@@H]1c1cc(O)cc(O)c1 | < 3.70 |
| COc1ccc([C@@H]2c3c(OC)cc(OC)cc3/C(=C/c3ccccc3)[C@H]2c2cc(OC)cc(OC)c2)cc1 | < 3.70 |
| COc1ccc([C@@H]2c3c(OC)cc(OC)cc3C(O)[C@H]2c2cc(OC)cc(OC)c2)cc1 (some centres undefined) | 5.10 |
| COc1cc(OC)cc([C@@H]2/C(=C\c3ccccc3)c3cc(OC)cc(OC)c3[C@H]2c2ccccc2)c1 | < 3.70 |
| Oc1ccc([C@@H]2c3c(O)cc(O)cc3[C@H]3[C@H](c4ccc(O)cc4)c4c(O)cc(O)cc4[C@@H]23)cc1 (relative stereo) | < 3.70 |
| COc1ccc([C@@H]2c3c(OC)cc(OC)cc3C(=O)[C@H]2c2cc(OC)cc(OC)c2)cc1 | < 3.70 |
| COc1ccc([C@@H]2c3c(OC)cc(OC)cc3/C(=C/c3ccc(F)cc3)[C@H]2c2cc(OC)cc(OC)c2)cc1 | < 3.70 |
| COc1cc(OC)cc([C@@H]2C(=O)c3cc(OC)cc(OC)c3[C@H]2c2ccc(F)cc2)c1 | 4.35 |
| COc1ccc([C@@H]2c3c(OC)cc(OC)cc3C(C(O)c3ccc(Cl)cc3)[C@H]2c2cc(OC)cc(OC)c2)cc1 (some centres undefined) | < 3.70 |
| COc1cc(OC)cc([C@@H]2C(SCc3ccccc3)c3cc(OC)cc(OC)c3[C@H]2c2ccccc2)c1 (some centres undefined) | < 3.70 |
| COc1ccc(C(O)C2c3cc(OC)cc(OC)c3[C@@H](c3ccc(OC)cc3)[C@@H]2c2cc(OC)cc(OC)c2)cc1 (some centres undefined) | < 3.70 |
| COc1cc(OC)cc([C@@H]2C(O)c3cc(OC)cc(OC)c3[C@H]2c2ccccc2)c1 (some centres undefined) | 5.47 |
| COc1ccc(C(O)C2c3cc(OC)cc(OC)c3[C@@H](c3ccccc3)[C@@H]2c2cc(OC)cc(OC)c2)cc1 (some centres undefined) | 4.78 |
| COc1ccc([C@@H]2c3c(OC)cc(OC)cc3C(SCc3ccc(Cl)cc3)[C@H]2c2cc(OC)cc(OC)c2)cc1 (some centres undefined) | < 3.70 |
| COc1ccc(CSC2c3cc(OC)cc(OC)c3[C@@H](c3ccc(OC)cc3)[C@@H]2c2cc(OC)cc(OC)c2)cc1 (some centres undefined) | 4.90 |

meta.source: ChEMBL document CHEMBL2406927
